system: SK-MEL-28 melanoma; assay: NCI-60 one-dose screen, 48 h; settings: 10 µM unless noted
Compounds without any hit were thinned out: in the full panel of roughly 83,000, 20% have a hit. Calls of active or inactive are those of the source. The calls were made as follows: active = growth percent below 10; inactive = the rest.
Outcomes you can answer with include only these: active, inactive

Qu. Hey, what did the test say about `COc1cc(NCCCN=C(N)NC(N)=NC(C)C)c2ncccc2c1` ?
Ans. inactive

Qu. Follow-up item: CC1Cc2c(N(C)C)ncnc2N(C)c2ccc(Cl)cc21 (stereo not given)
Ans. inactive

Qu. Follow-up item: `C=CCc1cc(Cl)cc2c(OC(C)=O)c(C(C)=O)c(-c3ccccc3)nc12`
Ans. inactive

Qu. Follow-up item: `Cc1nn(-c2ccc(Cl)cc2)c(=O)n1CCOc1ccccc1Cl`
Ans. inactive

Qu. Follow-up item: `ClC1=C(Cl)C(Cl)=C(Cl)C1=Cc1ccc(Cl)cc1Cl`
Ans. active

Qu. Follow-up item: `CN(C)c1nc(N)c(N=O)c(N)n1`
Ans. inactive

Qu. Follow-up item: `CCC(=O)Nc1ccccc1C#C/C=C\C#Cc1ccccc1SC`
Ans. inactive

Qu. Follow-up item: CC[C@H](C)[C@@H]1NC(=O)[C@H]([C@@H](C)O)NC(=O)C(Cc2ccccc2)NC(=O)[C@@H]2CCCN2C(=O)C(C(C)C)NC(=O)C(Cc2ccccc2)NC(=O)CNC(=O)[C@@H]2CCCN2C1=O (stereo not given in full)
Ans. inactive

Qu. Follow-up item: `CCOC(=O)[C@H](CSSc1ncnc2cc[nH]c12)NC(=O)[C@@H](C)c1ccc2cc(OC)ccc2c1`
Ans. inactive

Qu. Follow-up item: `COc1ccc(OC)c(-c2ccc(-c3ccccc3N)c3[nH]c4ccccc4c23)c1`
Ans. inactive

Qu. Follow-up item: `C=CC(=O)N[C@H](/C=C/C(=O)OCC)Cc1ccc(-c2cc(Cl)cc(Cl)c2)cc1`
Ans. inactive

Qu. Follow-up item: `C=C1C(=O)O[C@H]2[C@H]1CC/C(Cn1cc(-c3ccc(N)cc3)nn1)=C\CC[C@@]1(C)O[C@@H]21`
Ans. active

Qu. Follow-up item: `COc1ccc2c(c1)C(=O)/C(=C/c1ccc(O)cc1)O2`
Ans. inactive

Qu. Follow-up item: `CC(C)C[C@H](NC(=O)Cn1ccc(NCc2ccccc2)cc1=O)B(O)O`
Ans. inactive

Qu. Follow-up item: CCOC(=O)C(Cc1ccccc1)n1c(O)c(C=Nc2ccc(C(=O)OCCN(CC)CC)cc2)sc1=O (stereo not given)
Ans. inactive

Qu. Follow-up item: COC1=CC(c2ccc[nH]2)=N/C1=C\c1[nH]c(C)c(C(=O)CCCCC(=O)Oc2ccc3c(c2)CCC2C3CC[C@]3(C)[C@@H](O)CC[C@@H]23)c1C (stereo not given in full)
Ans. inactive

Qu. Follow-up item: `c1ccc(CCn2nnc3c(Nc4ccc(N5CCOCC5)cc4)ncnc32)cc1`
Ans. inactive

Qu. Follow-up item: `COc1ccc(C(=O)c2cc(OC)c(OC)c(OC)c2)cc1/C=C/C(=O)c1ccc(O)cc1`
Ans. inactive

Qu. Follow-up item: `CC/C(=C(\c1ccc(O)cc1)c1ccc(OCCN(C)CCN(C)C(=O)CCC(=O)c2c(C)[nH]c(/C=C3\N=C(c4ccc[nH]4)C=C3OC)c2C)cc1)c1ccccc1`
Ans. inactive

Qu. Follow-up item: `Nc1c(C(=O)Nc2ccccc2)sc2nc3c(cc12)CN(Cc1ccccc1)CC3`
Ans. inactive

Qu. Follow-up item: `CC(C)[C@H](CO)Nc1nc(Nc2ccc(C(=O)NCCNS(=O)(=O)c3cccc4c(N(C)C)cccc34)c(Cl)c2)c2ncn(C(C)C)c2n1`
Ans. inactive

Qu. Follow-up item: `CC(=O)n1cc([C@H]2CC[C@H](c3cn(C(C)=O)c4ccccc34)c3c2[nH]c2ccccc32)c2ccccc21`
Ans. inactive

Qu. Follow-up item: `CCCCCCCCCCn1cc[n+](C)c1`
Ans. inactive

Qu. Follow-up item: `Clc1ccc([I+]c2ccc(Cl)cc2Cl)c(Cl)c1`
Ans. inactive

Qu. Follow-up item: `COc1ccc(-c2nc3sccn3c2-c2ccnc(NCCNS(=O)(=O)c3ccc(C(F)(F)F)cc3)n2)cc1`
Ans. inactive

Qu. Follow-up item: `CCn1cc(C(=O)O)c(=O)c2cc(F)c(N3CCN(S(=O)(=O)c4cccc5ccccc45)CC3)cc21`
Ans. inactive

Qu. Follow-up item: `COc1ccc(-n2c(C)cc(-c3ccccc3)c2C)cc1`
Ans. inactive

Qu. Follow-up item: `NC(=O)NC(=O)/C=C/C(=O)OCCCl`
Ans. inactive

Qu. Follow-up item: `Cc1ccc(S(=O)(=O)NCCCNc2nccc(-c3c(-c4ccccc4)nc4sccn34)n2)cc1`
Ans. inactive

Qu. Follow-up item: `COc1ccc(C(=O)N2CCN(C(=O)c3cc(OC)c(OC)c(OC)c3)CC2)cc1OCCCCOc1cc2c(cc1OC)C(=O)N1CCC[C@H]1C=N2`
Ans. inactive

Qu. Follow-up item: `COc1ccccc1CNCCCN1C(=O)c2ccc3c4c(ccc(c24)C1=O)C(=O)N(CCCNCCCCNCCCCN)C3=O`
Ans. active

Qu. Follow-up item: `COc1cc(NC(=O)CCl)ccc(=O)c1`
Ans. inactive

Qu. Follow-up item: COc1cc(C2C=C(C)N=C3SC=CN32)cc(OC)c1OC (stereo not given)
Ans. inactive

Qu. Follow-up item: CC(Br)C(Br)c1cc2c(cc1Br)OCO2 (stereo not given)
Ans. inactive

Qu. Follow-up item: CCCCCCC[C@@H](O)CC(=O)N[C@H](CCCCN)C(=O)N[C@H](Cc1c[nH]c2ccccc12)C(=O)NC(CCCCN)C(=O)N[C@H](CC(C)C)C(=O)N[C@H](Cc1ccccc1)C(=O)N[C@H](CCCCN)C(=O)N[C@H](CCCCN)C(=O)N[C@H](CC(C)C)C(=O)N1CCCC1C(=O)N[C@H](CCCCN)C(=O)N[C@H](Cc1ccccc1)C(=O)N[C@H](CC(C)C)C(=O)N[C@H](Cc1c[nH]cn1)C(=O)N[C@H](CC(C)C)C(=O)N[C@H](C)C(=O)N[C@H](CCCCN)C(=O)N[C@H](CCCCN)C(=O)N[C@H](Cc1ccccc1)C(=O)O (stereo not given in full)
Ans. active
